- System under test: T1, soluble human ILT2-ECD (human, UniProt Q8NHL6 24-461)
- T1 construct: also called LILRB1 extracellular domain
- T1 sequence (Q8NHL6 24-461): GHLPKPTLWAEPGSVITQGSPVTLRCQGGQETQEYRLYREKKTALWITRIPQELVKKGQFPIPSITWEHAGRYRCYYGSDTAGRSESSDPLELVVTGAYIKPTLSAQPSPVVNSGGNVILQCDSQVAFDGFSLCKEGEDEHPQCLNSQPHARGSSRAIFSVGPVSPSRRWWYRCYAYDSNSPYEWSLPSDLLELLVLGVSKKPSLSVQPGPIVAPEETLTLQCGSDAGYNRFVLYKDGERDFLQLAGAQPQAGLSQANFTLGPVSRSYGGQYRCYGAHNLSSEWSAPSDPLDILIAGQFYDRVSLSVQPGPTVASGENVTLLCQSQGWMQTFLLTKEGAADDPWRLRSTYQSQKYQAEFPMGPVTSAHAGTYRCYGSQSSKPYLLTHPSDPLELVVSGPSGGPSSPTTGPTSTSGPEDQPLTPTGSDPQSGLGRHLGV
- Assay procedure: SPR (Biacore) as described in Example 3
Reported property: koff (s⁻¹)
Lab book: enter the figure in s⁻¹, no units written.

In: So what does the record say about koff for humanized anti-ILT2/ILT4 antibody Hz73D1.v1 (antibody, human IgG1, kappa, N297G, V domains shown, Human IgG1 constant region with G at position 297, human kappa; also called Hz73D1.vi) VH: QVQLVQSGAEVKKPGASVKVSCKASGYTFTDYYINWVRQAPGQGLEWMGNVNPNDGGTTYNQKFKGRVTMTTDTSTSTAYMELRSLRSDDTAVYYCARREIYFYGTIYYYAMDYWGQGTLVTVSS VL: DIQLTQSPSFLSASVGDRVTITCRASESVDYYGNSFMYWYQQKPGKAPKLLIYFASNLESGVPSRFSGSGSGTEFTLTISSLQPEDFATYYCQQNNEDPWTFGGGTKVEIKR ?
Out: 0.00025

In: So what does the record say about koff for anti-ILT2/ILT4 antibody 47H6 (antibody, V domains shown, Mouse hybridoma antibody) VH: EVQLQQSGPELVKPGASVKISCKASGYTFTDYYMNWVKQSHGKSLEWIGDFNPNNGGTTYNQKFEGKATLTVDKSSNTAYMDLRSLTSEDSAVYYCARGRFYYGSLYSFDYWGQGTTLTVSS VL: DIQMTQSPASLSASVGETVTITCRASGNIHNYLAWYQQKQGKSPHLLVYNAKTLADGVPSRFSGSGSGTQYSLKINNLQPEDFGSYYCQHFWTSITFGAGTKLDLK ?
Out: 2.1e-05

In: So what does the record say about koff for humanized anti-ILT2/ILT4 antibody Hz47H6.v2 (antibody, human IgG1, kappa, N297G, V domains shown) VH: QVQLVQSGAEVKKPGASVKVSCKASGYTFTDYYMNWVRQAPGQRLEWIGDFNPNNAGTTYNQKFEGRVTITVDKSASTAYMELSSLRSEDTAVYYCARGRFYYGSLYSFDYWGQGTLVTVSS VL: DIQMTQSPSSLSASVGDRVTITCRASGNIHNYLAWYQQKPGKAPKLLIYNAKTLADGVPSRFSGSGSGTDFTLTISSLQPEDFATYYCQHFWTSITFGPGTKVDIKR ?
Out: 0.0009

Kindly consider the entry below.
In: So what does the record say about koff for anti-ILT2/ILT4 antibody 73D1 (antibody, V domains shown, Mouse hybridoma antibody; Shares its light chain variable region with 73C4) VH: AVQLQQSGPELVKPGASVKISCKASGYTFTDYYINWVKQSHGKSLQWIGNVNPNDGGTTYNQKFKGKATLTVDKSSSTAYMELRSLTSEDSAVYYCARREIYFYGTIYYYAMDYWGQGTSVTVSS VL: DIVLTQSPASLAVSLGQRATISCRASESVDYYGNSFMYWYQQKPGRPPNLLIYFASNLESGVPARFSGSGSRTDFTLTIDPVEADDAATYYCQQNNEDPWTFGGGTKLEIK ?
Out: 0.00024

Origin of measurements: patent US20240025997A1
